Reported protein stability index values are given for each entry in this list.
B1: CCND1 (parent)
chain: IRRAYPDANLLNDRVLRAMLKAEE

- Variants of: B1
- run.description: protein stability index of a GFP-peptide fusion (GPS, HEK-293T) (PSI 1-6); higher = more stable;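 further: lentivirally expressed fusions sorted by FACS into six bins by GFP to DsRed ratio, PSI derived from sequencing read proportions per bin multiplied by bin number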
- condition.parameters: c terminus: a fixed tail appended
Respond with the number and no other words.

Previously resolved entries follow.
Give recorded protein stability index. L16G 2.99

Return value of protein stability index for input D13F , no commentary. 2.34

Indicate the recorded protein stability index value for this variant: A8P 3.03

Quickly give me recorded protein stability index for A22H 2.8

Lab note: next variant to report on.
Given the variant V15E , write its reported protein stability index. 3.12
